Where do these numbers come from? They come from ChEMBL document CHEMBL1201862.

# subjectOfTest: Polyadenylate-binding protein 1 (Homo sapiens, UniProt P11940)
# Sequence (P11940 whole entry): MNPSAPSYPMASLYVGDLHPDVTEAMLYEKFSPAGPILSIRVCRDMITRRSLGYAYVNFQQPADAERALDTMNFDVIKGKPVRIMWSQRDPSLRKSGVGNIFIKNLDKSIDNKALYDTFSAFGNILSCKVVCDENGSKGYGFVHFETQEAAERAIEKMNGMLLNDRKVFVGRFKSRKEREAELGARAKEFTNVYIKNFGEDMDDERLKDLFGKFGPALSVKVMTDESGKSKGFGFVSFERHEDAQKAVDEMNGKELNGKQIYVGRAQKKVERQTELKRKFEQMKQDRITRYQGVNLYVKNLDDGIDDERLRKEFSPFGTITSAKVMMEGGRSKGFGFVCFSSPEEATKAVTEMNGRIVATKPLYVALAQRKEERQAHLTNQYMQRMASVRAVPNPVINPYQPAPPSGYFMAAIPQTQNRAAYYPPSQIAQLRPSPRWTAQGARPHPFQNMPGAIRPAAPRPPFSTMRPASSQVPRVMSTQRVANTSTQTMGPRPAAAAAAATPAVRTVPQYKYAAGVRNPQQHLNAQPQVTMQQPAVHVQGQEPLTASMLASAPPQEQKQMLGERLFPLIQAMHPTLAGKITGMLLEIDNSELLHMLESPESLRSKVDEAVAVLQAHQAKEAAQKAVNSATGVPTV
# experimentNotes: PABP1 MLLE–PAM2 binding inhibitor potency, dose response, biochemical, fluorescence polarization, FITC-PAM2 peptide (AID 602259)
# Type: functional
# measurementSetup: read-out: IC50_Mean
Active and inactive are the calls of the source.
endpoint: IC50

- inputSmiles: "Cc1ccc(C(=O)NC(=S)Nc2ccc3[nH]c(O)nc3c2)c(C)c1"
  IC50: "> 66 µM (inactive)"

Q: Let me know recorded IC50 for CCN(CC)C(=O)CSc1nnc2nnc3cc(C)ccc3n12 , thanks.
Result: 49.8 µM (inactive)

Q: Identify measured IC50 associated with COc1ccc2c(C#N)c3ccccn3c2c1
Result: 21.2 µM (inactive)

---

Each record here notes measured IC50.
# subjectOfTest: UniProt P61088
# Sequence (P61088 whole entry): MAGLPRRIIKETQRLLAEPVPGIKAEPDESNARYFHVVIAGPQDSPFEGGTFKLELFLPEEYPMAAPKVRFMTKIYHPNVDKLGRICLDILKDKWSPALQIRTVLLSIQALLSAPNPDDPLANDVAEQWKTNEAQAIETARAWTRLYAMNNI
# Format: functional
Activity calls are given as the source filed them.

Worked examples, 2 compounds total:
- inputSmiles: "NCCNc1ccc(C(=O)N2c3ccccc3Sc3ccccc32)cc1[N+](=O)[O-]"
  observedResult: "9.58 µM (active)"
- inputSmiles: "COC(=O)c1c(-c2ccc(SC)cc2)sc2ccc(OC)cc12"
  observedResult: "18.9 µM (active)"

Shifting focus to the compound that follows.
Q: Give the value of IC50 reported for the following: Cc1cccc2sc(N(CCN3CCOCC3)C(=O)CCS(=O)(=O)c3ccccc3)nc12
Result: > 20 µM (inactive)

---

# subjectOfTest: Replicative DNA helicase DnaB (Mycobacterium tuberculosis, UniProt P9WMR3)
# Sequence (P9WMR3 whole entry): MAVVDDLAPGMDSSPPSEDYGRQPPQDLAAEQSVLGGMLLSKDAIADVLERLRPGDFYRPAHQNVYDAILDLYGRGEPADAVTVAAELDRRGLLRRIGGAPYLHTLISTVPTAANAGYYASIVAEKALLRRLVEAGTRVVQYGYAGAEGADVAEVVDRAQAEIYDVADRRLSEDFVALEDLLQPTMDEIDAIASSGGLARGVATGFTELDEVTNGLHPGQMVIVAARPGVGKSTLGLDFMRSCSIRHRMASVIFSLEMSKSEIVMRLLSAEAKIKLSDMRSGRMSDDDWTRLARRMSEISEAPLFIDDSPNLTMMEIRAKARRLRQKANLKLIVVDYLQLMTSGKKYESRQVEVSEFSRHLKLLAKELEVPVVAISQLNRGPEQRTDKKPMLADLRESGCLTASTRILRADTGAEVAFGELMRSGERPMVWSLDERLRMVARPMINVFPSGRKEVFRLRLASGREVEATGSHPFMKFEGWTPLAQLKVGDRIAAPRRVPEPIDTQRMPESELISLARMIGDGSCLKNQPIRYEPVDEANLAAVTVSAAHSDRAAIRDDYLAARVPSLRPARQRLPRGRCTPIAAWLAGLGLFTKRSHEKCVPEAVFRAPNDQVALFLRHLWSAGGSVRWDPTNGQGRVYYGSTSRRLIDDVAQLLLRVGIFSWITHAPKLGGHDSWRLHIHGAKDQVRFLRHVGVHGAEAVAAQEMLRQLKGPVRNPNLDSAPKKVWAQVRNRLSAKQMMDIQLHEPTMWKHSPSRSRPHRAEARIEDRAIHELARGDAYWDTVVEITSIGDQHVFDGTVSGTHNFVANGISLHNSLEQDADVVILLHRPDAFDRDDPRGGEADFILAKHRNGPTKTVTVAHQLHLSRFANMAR
# experimentNotes: DnaB intein splicing inhibitors, dose response, biochemical, cell-free fluorescence (AID 449749)
# Type: functional
The source made the active and inactive calls.
endpoint: AC50

- compound: "CC1(C)Nc2ccc(O)cc2-c2c1ssc2=S"
  AC50: "9 µM (active)"
- compound: "C/C(CC(=O)Nc1ccc(F)cc1)=N\\NC(=O)COc1ccccc1"
  AC50: "10.3 µM (active)"
- compound: "OC(CNCCC1C=Nc2ccccc21)Cn1c2ccc(Cl)cc2c2cc(Cl)ccc21 (centres undefined)"
  AC50: "6.51 µM (active)"
- compound: "Cc1ccc(Sc2ccc(NC(=O)CCl)cc2)c(C)c1"
  AC50: "2.5 µM (active)"
- compound: "O=[N+]([O-])c1c(Nc2ccc(O)cc2)cc(Cl)c2nonc12"
  AC50: "1.1 µM (active)"

Q: Complete the entry with AC50 for Oc1ccc(/N=C/c2sc3ccccc3c2Cl)cc1
Result: 137 µM (active)

Q: Name the recorded AC50 of the compound listed here: Cc1c(C(=O)NN)nn(-c2ccc(Cl)cc2)c(=O)c1C#N
Result: 79.8 µM (active)

Q: Note down AC50 recorded for CCOC(=O)c1ccc(NC2=CC(=O)C(=O)c3ccccc32)cc1
Result: > 380 µM (inactive)

Q: Quick one: give measured AC50 for Cc1ccc(C(=O)N/N=C/c2ccc(-c3ccccc3[N+](=O)[O-])o2)cn1
Result: 30.6 µM (active)

Q: Name the recorded AC50 of the compound listed here: Cc1ccc(/C=C2\Sc3ccccc3C2=O)s1
Result: 11.8 µM (active)

Q: For the compound COc1cc(C(c2c(C)n[nH]c2O)c2c(C)n[nH]c2O)ccc1OC(C)C , give its reported AC50.
Result: 0.318 µM (active)

Q: Answer with the recorded AC50 of CCCCCCCCCCCCCCCC[N+](C)(C)C only.
Result: 4.78 µM (active)

Q: Supply recorded AC50 for Cc1ccccc1-c1cc2c(nn1)-c1ccccc1C2=O here.
Result: 6.85 µM (active)

Q: State its AC50 for this compound: COc1ccc(N2C(=O)C(Cl)=C(N3CCN(Cc4ccccc4)CC3)C2=O)cc1
Result: 8.12 µM (active)
